Biological target: T1, IL-23R on human cells (IL-23R-expressing DB cells; human NK cells) (human, UniProt Q5VWK5 24-629)
T1 sequence (looked up): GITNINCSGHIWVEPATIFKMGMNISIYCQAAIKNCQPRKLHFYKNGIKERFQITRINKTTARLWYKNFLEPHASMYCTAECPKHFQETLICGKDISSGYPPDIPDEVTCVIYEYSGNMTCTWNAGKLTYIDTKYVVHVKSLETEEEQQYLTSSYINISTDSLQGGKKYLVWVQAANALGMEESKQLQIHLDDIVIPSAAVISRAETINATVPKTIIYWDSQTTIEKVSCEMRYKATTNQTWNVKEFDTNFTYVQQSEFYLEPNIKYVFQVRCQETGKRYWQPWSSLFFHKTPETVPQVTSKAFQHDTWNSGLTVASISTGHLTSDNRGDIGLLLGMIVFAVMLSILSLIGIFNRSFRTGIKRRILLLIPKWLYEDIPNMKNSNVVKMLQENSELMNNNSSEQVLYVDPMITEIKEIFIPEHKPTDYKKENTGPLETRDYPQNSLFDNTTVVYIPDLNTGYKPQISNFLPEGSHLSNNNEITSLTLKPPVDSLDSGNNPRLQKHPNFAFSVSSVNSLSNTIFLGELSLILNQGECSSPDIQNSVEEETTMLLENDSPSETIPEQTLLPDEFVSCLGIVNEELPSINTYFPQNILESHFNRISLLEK
Assay: cell-based or functional assay
*1 amine or outer side, *2 acyl side, *3 side chain or, on linkers, in order; H or OH if unused. Bridges are numbered along the chain shown (N, C = ends). Primed or numbered codes have the meaning given here. [ ]: non-standard residue; d: D form. Phe(4-OMe)(3) = O-methyl-L-tyrosine (4-methoxy-L-phenylalanine), COc1ccc(C[C@H](N[*:1])C(=O)[*:2])cc1; Phe(4-OMe) = 4-methoxy-L-phenylalanine (O-methyl-L-tyrosine), COc1ccc(C[C@H](N[*:1])C(=O)[*:2])cc1; Phe(4-OMe)(4) = O-methyl-L-tyrosine, COc1ccc(C[C@H](N[*:1])C(=O)[*:2])cc1; 2Nal = N[C@@H](Cc1ccc2ccccc2c1)C(=O)O; Cha = N[C@@H](CC1CCCCC1)C(=O)O; αMeK = C[C@](N)(CCCCN)C(=O)O; Abu = CC[C@H](N)C(=O)O
READOUT KIND: pStat3 HTRF IC50

INSERT INTO assay_data (binder, result) VALUES
  ('Ac-[Abu]QTWQC[Phe(4-OMe)][2Nal][Cha]K(Ac)NG-NH2 (thioether 1-6) [Ac-Cyclo-[[Abu]-QTWQC]-[Phe(4-OMe)]-[2-Nal]-[Cha]-[Lys(Ac)]-NG-NH2]', '< 10 nM'),
  ('Ac-[Abu]NTWQC[Phe(4-OMe)(4)][2Nal][αMeK]K(Ac)NG-NH2 (thioether 1-6) [Ac-Cyclo-[[Abu]-NTWQC]-[Phe(4-OMe)]-[2-Nal][α-MeLys]-[Lys(Ac)]-NG-NH2]', '< 10 nM'),
  ('Ac-[Abu]QTWQC[Phe(4-OMe)(3)][2Nal][αMeK]K(Ac)QG-NH2 (thioether 1-6) [Ac-Cyclo-[[Abu]-QTWQC]-[Phe(4-OMe)]-[2-Nal][α-MeLys]-[Lys(Ac)]-QG-NH2]', '< 10 nM');
